MEASUREMENT TARGET: PE-labeled human PD-L1-Ig binding to Jurkat cell line over-expressing human PD-1 (Jurkat-PD-1) (Homo sapiens, UniProt Q15116)
Construct: expressed in transfected cells; host or cells: Jurkat
Sequence (Q15116 25-288): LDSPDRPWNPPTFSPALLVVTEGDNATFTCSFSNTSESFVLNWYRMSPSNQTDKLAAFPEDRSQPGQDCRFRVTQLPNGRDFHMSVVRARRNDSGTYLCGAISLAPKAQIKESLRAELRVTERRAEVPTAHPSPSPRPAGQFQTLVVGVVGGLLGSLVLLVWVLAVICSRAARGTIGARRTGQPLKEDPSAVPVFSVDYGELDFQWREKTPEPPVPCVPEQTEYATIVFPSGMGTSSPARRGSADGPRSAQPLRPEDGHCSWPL
ASSAY EXPLANATION: Jurkat-PD-1 Cell Binding High-Content Screening Assay (CBA): Method 1
RECORDED CONDITIONS: Jurkat HPDL1 PD1 IC50 (uM) (Method 1), Jurkat-hPD-1 cells, PE-labeled PD-L1-Ig 20 nM final
Bridge positions count the residues as written; N and C are the ends. Square brackets hold non-standard residues; d marks the D form. Peptide text beside a SMILES is read from it. Bip = N[C@@H](Cc1ccc(-c2ccccc2)cc1)C(=O)O; Phe(3-Me) = Cc1cccc(C[C@H](N)C(=O)O)c1; NMeA = CN[C@@H](C)C(=O)O; Dab = NCC[C@H](N)C(=O)O; Dap = NC[C@H](N)C(=O)O

| MOLECULE | MEASUREMENT UNITS | IC50 |
| --- | --- | --- |
| CC(C)C[C@@H]1NC(=O)[C@H](CCN)NC(=O)[C@@H](CC(C)C)NC(=O)[C@H](C)N(C)C(=O)[C@H](CCCNC(=N)N)NC(=O)[C@H](Cc2ccc(-c3ccccc3)cc2)NC(=O)[C@H](C(C)C)NC(=O)[C@H](Cc2c[nH]c3ccccc23)NC(=O)[C@H](CC(=O)O)NC(=O)[C@H](Cc2ccc(O)cc2)NC(=O)[C@H](Cc2ccccc2)NC(=O)CSC[C@@H](C(=O)N[C@@H](C)C(N)=O)NC(=O)[C@H](CO)NC(=O)[C@H](C(C)C)NC1=O [Compound 1030] ({CH2CO}-FYDWV[Bip]R[NMeA][dL][Dab]LVSCA-NH2; thioether N-14) | µM | 0.03 |
| Cc1cccc(C[C@@H]2NC(=O)[C@H](CC(=O)O)NC(=O)[C@H](Cc3ccccc3)NC(=O)[C@H](CN)NC(=O)CSC[C@@H](C(=O)N[C@@H](C)C(N)=O)NC(=O)[C@H](CO)NC(=O)[C@H](Cc3ccccc3)NC(=O)[C@H](CC(C)C)NC(=O)[C@H](CC(N)=O)NC(=O)[C@@H](CC(C)C)NC(=O)[C@H](C)N(C)C(=O)[C@H](Cc3ccccc3)NC(=O)[C@H](Cc3ccc(-c4ccccc4)cc3)NC(=O)[C@H](CC(C)C)NC2=O)c1 [Compound 1594] ({CH2CO}-[Dap]FD[Phe(3-Me)]L[Bip]F[NMeA][dL]NLFSCA-NH2; thioether N-14) | µM | 0.01 |

====

MEASUREMENT TARGET: PE-labeled human PD-L1-Ig binding to Jurkat cell line over-expressing human PD-1 (Jurkat-PD-1) (Homo sapiens)
Construct: expressed in transfected cells; host or cells: Jurkat
ASSAY EXPLANATION: Jurkat-PD-1 Cell Binding High-Content Screening Assay (CBA): Method 1
RECORDED CONDITIONS: Jurkat-hPD-1 cells, PE-labeled PD-L1-Ig 20 nM final; read-out: Jurkat HPDL1 PD1 IC50 (uM) (Method 1)
Bridge positions count the residues as written; N and C are the ends. Square brackets hold non-standard residues; d marks the D form. Peptide text beside a SMILES is read from it. Bip = N[C@@H](Cc1ccc(-c2ccccc2)cc1)C(=O)O; NMeA = CN[C@@H](C)C(=O)O
VALUE TYPE: IC50 (µM)

| COMPOUND | MEASUREMENT UNITS | VALUE REPORTED |
| --- | --- | --- |
| CC(C)C[C@@H]1NC(=O)[C@H](Cc2c[nH]c3ccccc23)NC(=O)[C@H](CC(=O)O)NC(=O)[C@H](Cc2ccc(O)cc2)NC(=O)[C@H](Cc2ccccc2)NC(=O)CSC[C@@H](C(=O)N[C@@H](C)C(N)=O)NC(=O)[C@H](CO)NC(=O)[C@H](C(C)C)NC(=O)[C@H](CC(C)C)NC(=O)[C@H](CC(N)=O)NC(=O)[C@@H](CC(C)C)NC(=O)[C@H](C)N(C)C(=O)[C@H](C(C)C)NC(=O)[C@H](Cc2ccc(-c3ccccc3)cc2)NC1=O [Compound 1745] ({CH2CO}-FYDWL[Bip]V[NMeA][dL]NLVSCA-NH2; thioether N-14) | µM | 0.02 |
